# measuredOn: mTOR (Homo sapiens, UniProt P42345)
# Sequence (P42345 1362-2549): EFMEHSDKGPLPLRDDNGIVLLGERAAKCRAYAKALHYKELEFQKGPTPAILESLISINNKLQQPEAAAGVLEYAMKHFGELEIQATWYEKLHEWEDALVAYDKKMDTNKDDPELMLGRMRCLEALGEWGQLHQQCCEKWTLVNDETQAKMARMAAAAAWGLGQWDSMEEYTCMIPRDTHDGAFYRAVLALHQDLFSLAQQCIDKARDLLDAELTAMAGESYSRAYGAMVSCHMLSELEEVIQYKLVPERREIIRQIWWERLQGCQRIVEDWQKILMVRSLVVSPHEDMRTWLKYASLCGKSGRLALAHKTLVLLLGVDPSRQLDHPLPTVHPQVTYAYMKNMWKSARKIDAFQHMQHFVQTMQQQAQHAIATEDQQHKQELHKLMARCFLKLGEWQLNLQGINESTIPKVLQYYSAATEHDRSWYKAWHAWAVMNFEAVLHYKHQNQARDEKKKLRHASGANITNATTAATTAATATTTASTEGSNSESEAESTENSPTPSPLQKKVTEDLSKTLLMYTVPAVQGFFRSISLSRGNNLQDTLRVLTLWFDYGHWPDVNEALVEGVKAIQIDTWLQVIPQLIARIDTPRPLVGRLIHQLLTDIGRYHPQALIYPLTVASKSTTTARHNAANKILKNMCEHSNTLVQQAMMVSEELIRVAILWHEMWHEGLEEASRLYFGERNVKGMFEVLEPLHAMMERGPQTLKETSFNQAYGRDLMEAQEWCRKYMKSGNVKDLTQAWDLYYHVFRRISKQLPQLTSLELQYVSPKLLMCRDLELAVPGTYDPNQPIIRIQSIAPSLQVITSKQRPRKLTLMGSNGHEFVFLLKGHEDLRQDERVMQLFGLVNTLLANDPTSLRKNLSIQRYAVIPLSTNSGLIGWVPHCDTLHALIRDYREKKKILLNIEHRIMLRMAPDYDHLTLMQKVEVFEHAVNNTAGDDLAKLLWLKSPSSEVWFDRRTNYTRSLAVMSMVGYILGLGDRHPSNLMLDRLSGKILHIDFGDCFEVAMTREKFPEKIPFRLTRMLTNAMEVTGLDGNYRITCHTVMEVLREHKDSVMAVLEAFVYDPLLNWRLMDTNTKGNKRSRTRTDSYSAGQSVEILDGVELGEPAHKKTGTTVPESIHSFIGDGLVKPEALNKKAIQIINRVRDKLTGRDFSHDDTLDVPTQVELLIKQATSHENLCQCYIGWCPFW
# methodSummary: Enzyme - mTOR Kinase Assay (Echo);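 note: enzyme expressed in HEK293 cells, 2 h incubation at room temperature, read-out is phosphorylation of a biotinylated peptide substrate detected with an anti-phospho p70 S6 Kinase (T389) antibody, inhibition lowers signal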
# testContext: recombinant FLAG-tagged mTOR (1362-2549); AlphaScreen; ATP 20 μM
assayReadout: IC50 (nM)
Express the result in nM but write the number alone.

Sample C[C@@H]1COCCN1c1cc(C2(S(C)(=O)=O)CCC2)nc(-c2cccc3[nH]ccc23)n1 [Example 3.16] ; IC50 observed: 85.8

IC50 reported for this molecule CCS(=O)(=O)C1(c2cc(N3CCOC[C@H]3C)nc(-c3cccc4[nH]ccc34)n2)CCOCC1 [Example 3.21] : 686

The molecule C[C@@H]1COCCN1c1cc(C2(S(=O)(=O)C3CC3)CC2)nc(-c2cccc3[nH]ccc23)n1 [Example 3.17] showed IC50 equal to 97.8

Summary for this molecule, Cc1cc(-c2nc(N3CCOC[C@H]3C)cc(C3(S(C)(=O)=O)CC3)n2)c2cc[nH]c2c1 [Example 3.02] : IC50 is 97.1

// IC50 lookup, molecule = CS(=O)(=O)C1(c2cc(N3CCOCC3)nc(-c3cc(C#N)cc4[nH]ccc34)n2)CC1 [Example 1.05] , result: 326

Others:
Memo: C[C@@H]1COCCN1c1cc(C2(S(C)(=O)=O)CCNCC2)nc(-c2cccc3[nH]ccc23)n1 [Example 3.15] , reported IC50: 980
